Data origin, for the record: ChEMBL document CHEMBL4689842

Test system: HEK-293T
Test: Multiplex assay against HEK293T
Type: toxicity, cell-based
Settings: human, 12 h, 10 µM, compound concentration 10 uM, replicate 1
Rule: Population Mitotic Cells (%) below 50% gives 1.0. Equal to or above 50% gives 0.0.

> print(dat)
                                    compound  assigned.class
 1  CN(c1cc(C(F)(F)F)nc(OCCC(=O)O)n1)c1cccc2c1CCC2             0.0
 2  CCCCCNC(=N)N/N=C/c1c[nH]c2ccc(OC)cc12.O=C(O)/C=C\C(=O)O [TEGASEROD MALEATE]             1.0
 3  NC(=O)c1ccc2nc(-c3ccc(C4(N)CCC4)cc3)c(-c3ccccc3)n2n1             0.0
 4  N#Cc1cccc(C(=O)Nc2cc(-c3ccccc3)nn2-c2ccccc2)c1             1.0
 5  c1ccc(-c2oc3ncnc(NC[C@@H]4CCCO4)c3c2-c2ccccc2)cc1             1.0
 6  Cl.Cn1c2c(c3ccc(Cl)c(Cl)c31)C(C#N)C1(CCNCC1)NC2=O (stereo unspecified)             0.0
 7  CC(C)c1cc(Nc2nc(N3CCC[C@H](N)C3)ncc2C(N)=O)cc(C(C)C)n1             1.0
 8  CC(Cc1ccc(O)c(O)c1)C(C)Cc1ccc(O)c(O)c1 (stereo unspecified) [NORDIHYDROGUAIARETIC ACID]             0.0
 9  Cc1ccc(NC(=O)Nc2cc(C(F)(F)F)ccc2F)cc1Nc1ccc2c(c1)NC(=O)/C2=C\c1ccc[nH]1             0.0
10  CC(C)[C@H](CO)Nc1nc(Nc2cccc(Cl)c2)c2ncn(C(C)C)c2n1             1.0
11  C[C@@H](Oc1cc(-n2cnc3ccc(CN4CCN(C)CC4)cc32)sc1C(N)=O)c1ccccc1C(F)(F)F             1.0
12  CC[C@@H]1C(=O)N(C)c2cnc(Nc3ccc(C(=O)NC4CCN(C)CC4)cc3OC)nc2N1C1CCCC1             0.0
13  Oc1cccc(-c2nc(N3CCOCC3)c3oc4ncccc4c3n2)c1             1.0
14  CN1C(=O)[C@@H](NC(=O)c2cc3ccccc3[nH]2)N=C(c2ccccc2)c2ccccc21 [DEVAZEPIDE]             1.0

* * *

Test system: U2OS
Test: Multiplex assay against U2OS
Assay type: toxicity, cell-based
Conditions: human, 12 h, 10 µM, compound concentration 10 uM, replicate 1
Output 1.0 for Population Pyknosed Nuclei (%) not less than 20%; output 0.0 otherwise.

> print(dat)
                                    compound  assigned.class
 1  CC(/C=C1\SC(=S)N(CCCC(=O)Nc2ccc(C(=O)O)c(O)c2)C1=O)=C\c1ccccc1             0.0
 2  CN(c1cc(C(F)(F)F)nc(OCCC(=O)O)n1)c1cccc2c1CCC2             0.0
 3  N#CCNC(=O)c1ccc(-c2ccnc(Nc3ccc(N4CCOCC4)cc3)n2)cc1             1.0
 4  Cc1ccc(NC(=O)Nc2cc(C(F)(F)F)ccc2F)cc1Nc1ccc2c(c1)NC(=O)/C2=C\c1ccc[nH]1             0.0
 5  N#Cc1cccc(C(=O)Nc2cc(-c3ccccc3)nn2-c2ccccc2)c1             0.0
 6  CC[C@@]1(O)C(=O)OCc2c1cc1n(c2=O)Cc2cc3ccccc3nc2-1             0.0
 7  Cc1ccc(S(=O)(=O)NC2c3ccccc3Oc3ccccc32)cc1             0.0
 8  Cc1c(P(=S)(c2ccccc2)c2ccccc2)n2ccccc2[n+]1C/C=C/c1ccccc1.[Br-]             1.0
 9  CC[C@@H]1C(=O)N(C)c2cnc(Nc3ccc(C(=O)NC4CCN(C)CC4)cc3OC)nc2N1C1CCCC1             0.0
10  Cl.NC[C@@H]1O[C@H](C23CC4CC(CC(C4)C2)C3)Cc2c1ccc(O)c2O             1.0
11  c1ccc(-c2oc3ncnc(NC[C@@H]4CCCO4)c3c2-c2ccccc2)cc1             1.0
12  CC(C)[C@H](CO)Nc1nc(Nc2cccc(Cl)c2)c2ncn(C(C)C)c2n1             1.0
13  CC(C)C[C@H](NC(=O)[C@H](Cc1ccccc1)NC(=O)CNC(=O)CNC(=O)[C@@H](N)Cc1ccc(O)cc1)C(=O)O             0.0
14  CCCc1cc(C)[nH]c(=O)c1CNC(=O)c1cc(-c2ccc(N3CCN(C(C)C)CC3)nc2)cc2c1cnn2C(C)C             1.0
15  CC(Cc1ccc(O)c(O)c1)C(C)Cc1ccc(O)c(O)c1 (centres undefined) [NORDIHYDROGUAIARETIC ACID]             0.0
16  CN1C(=O)[C@@H](NC(=O)c2cc3ccccc3[nH]2)N=C(c2ccccc2)c2ccccc21 [DEVAZEPIDE]             0.0
17  CC(C)c1cc(Nc2nc(N3CCC[C@H](N)C3)ncc2C(N)=O)cc(C(C)C)n1             1.0
18  C=CC(=O)Nc1cc(-n2c(=O)ccc3cnc4ccc(-c5ccc(NS(C)(=O)=O)cc5)cc4c32)ccc1C             0.0
19  CCOC(=O)CCNc1cc(N2CCc3ccccc3CC2)nc(-c2ccccn2)n1             0.0
